B1: WW domain-containing transcription regulator protein 1, residues 116 to 162; numbered along this chain, Q9GZV5 (parent)
chain: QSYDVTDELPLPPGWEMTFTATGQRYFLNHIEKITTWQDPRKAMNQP

# Variants of: B1
# Run description: abundance fitness (aPCA) (normalised: wild type 0, dead -1); higher = more abundant; growth selection in yeast, the domain comes from the species named
# Run conditions: Homo sapiens
Answer not fulfilled if abundance fitness is under -0.2, and fulfilled if it is -0.2 or more.

Previously resolved entries follow.
Variant descriptor	Discrete label
V5S	fulfilled
P10R	not fulfilled
E16C	not fulfilled
E8P	fulfilled
R25Y	not fulfilled
M44Q	fulfilled
P12R	not fulfilled
D4L	fulfilled

Dear colleague, could you confirm whether Q46P has abundance fitness at or above -0.2?
fulfilled

Check L28M too.
fulfilled

Check T22C too.
fulfilled

Check P12L too.
not fulfilled

Check K42T too.
fulfilled

The reported measurements were obtained from the Human Domainome abundance scans (Beltran et al. 2025).
